Reported values: Ki for human GnRH receptor (Homo sapiens), one per item.

What value of Ki has been recorded for this entry: "CN(C(=O)c1ccc(Cl)c(-c2nc3cccc(F)c3cc2C#N)c1)c1ccccc1OCCCC(=O)O"
≤ 100 nM

What value of Ki has been recorded for this entry: "COc1ccccc1N(C)C(=O)c1ccc(Cl)c(-c2cnc(Cl)cc2Cl)c1"
≤ 100 nM

What value of Ki has been recorded for this entry: "CN(C(=O)c1ccc(Cl)c(-c2nc3c(F)c(F)c(F)c(F)c3cc2C#N)c1)c1ccccc1OCCCC(=O)O"
≤ 100 nM

What value of Ki has been recorded for this entry: "COc1cc(Cl)c(-c2cnc(C(F)(F)F)cc2C#N)cc1C(=O)N(C)c1ccccc1-c1cnco1"
≤ 100 nM

What value of Ki has been recorded for this entry: "CN(C(=O)c1ccc(Cl)c(-c2cnc(C(F)(F)F)cc2C#N)c1)c1ccccc1OCCc1n[nH]c(=O)[nH]1"
≤ 100 nM

What value of Ki has been recorded for this entry: "COc1cc(C)c(-c2cc(C(=O)N(C)c3cccc(Cl)c3OC)ccc2Cl)cn1"
≤ 100 nM

What value of Ki has been recorded for this entry: "CN(C(=O)c1ccc(Cl)c(-c2cnc(C(F)(F)F)cc2C#N)c1)c1cccc(F)c1OCCCC(=O)O"
≤ 100 nM

What value of Ki has been recorded for this entry: "Cc1cc(Cl)c(-c2cc(C(=O)N(C)c3ccccc3F)ccc2Cl)cn1"
≤ 100 nM

What value of Ki has been recorded for this entry: "COc1cccc(N(C)C(=O)c2cc(-c3cnc(C(F)(F)F)cc3C#N)c(Cl)cc2OC)n1"
≤ 100 nM

What value of Ki has been recorded for this entry: "Cc1cc(C#N)ncc1-c1cc(C(=O)N(C)c2c(C)cccc2C)c(OCCCC(=O)O)cc1Cl"
≤ 100 nM

What value of Ki has been recorded for this entry: "COC(=O)COc1ccccc1N(C)C(=O)c1ccc(Cl)c(-c2cnc(C)cc2Cl)c1"
≤ 100 nM

What value of Ki has been recorded for this entry: "COc1cccc(C)c1N(C)C(=O)c1ccc(Cl)c(-c2cnc(Cl)cc2C)c1"
≤ 100 nM

What value of Ki has been recorded for this entry: "COc1cccc(C)c1N(C)C(=O)c1cc(-c2nc3ccccc3cc2C#N)c(Cl)cc1OCCCC(=O)O"
≤ 100 nM

What value of Ki has been recorded for this entry: "COc1ccccc1N(C)C(=O)c1cc(-c2cnc(C(F)(F)F)cc2C#N)c(Cl)cc1OCCCOc1ccccn1"
≤ 100 nM

What value of Ki has been recorded for this entry: "CN(C(=O)c1ccc(Cl)c(-c2cnc(C(F)(F)F)cc2C#N)c1)c1ccccc1OCCCc1nnn[nH]1"
≤ 100 nM

What value of Ki has been recorded for this entry: "CN(C(=O)c1cc(-c2cnc(C(F)(F)F)cc2C#N)c(Cl)cc1OCCCC(=O)O)c1ccccc1OC(F)(F)F"
≤ 100 nM

What value of Ki has been recorded for this entry: "CN(C(=O)c1ccc(Cl)c(-c2cnc(C(F)(F)F)cc2C#N)c1)c1ccccc1OCCc1n[nH]c(=O)o1"
≤ 100 nM
